B1: Caulobacter ParB omega fusion; a variant is named by its letters at X, in order, B8GW30 (parent)
chain: MESVVVGEPGMSEGRRGLGRGLSALLGEVDAAPAQAPGEQLGGSREAPIEILQRNPDQPRRTFREEDLEDLSNSIREKGVLQPILVRPSPDTAGEYQIVAGERAWRAAQRAGLKTVPIMVRELDDLAVLEIGIIENVQRADLNVLEEALSYKVLMEKFERTQENIAQTIGKSXSHVANXMRLLXLPDEVQSYLVSGELTAXHARAIAAAADPVALAKQIIEGGLSVRETEALARKAPNLSAGKSKGGRPPRVKDTDTQALESDLSSVLGLDVSIDHRGSTGTLTITYATLEQLDDLCNRLTRGI

Variants of: B1
Experiment: one-hybrid fitness for binding parS DNA (scaled: cognate 1, non-cognate 0); higher = stronger binding
Conditions: with parS DNA site
In all, about 81,000 sequences were measured (“one-hybrid fitness for binding parS DNA”: median about -0.17, highest 2% from about 0.51 on). For the sample, the highest values were picked, then their nearest neighbours and some sequences at random.
value_type: one-hybrid fitness for binding parS DNA

> print(dat)
    change  limit.operator    val
 1    RVRH               =  0.203
 2    RVCP               ≤    0.2
 3    RVCC               =  0.966
 4    RYDN               =  0.407
 5    RSHC               =  0.968
 6    GVFL               ≤    0.2
 7    NATT               ≤    0.2
 8    RYNS               =  0.872
 9    VNAS               ≤    0.2
10    RYND               =  0.213
11    CIRT               ≤    0.2
12    KNMC               ≤    0.2
13    HHGR               ≤    0.2
14    HTAD               ≤    0.2
15    PVTI               ≤    0.2
